The values you see were collected from paper PMC10786891.

Attribute: Kd
# measured_on: T1, EsCas13d, nuclease-dead (Eubacterium siraeum, UniProt B0MS50, R295A;H300A;R849A;H854A)
# T1 sequence: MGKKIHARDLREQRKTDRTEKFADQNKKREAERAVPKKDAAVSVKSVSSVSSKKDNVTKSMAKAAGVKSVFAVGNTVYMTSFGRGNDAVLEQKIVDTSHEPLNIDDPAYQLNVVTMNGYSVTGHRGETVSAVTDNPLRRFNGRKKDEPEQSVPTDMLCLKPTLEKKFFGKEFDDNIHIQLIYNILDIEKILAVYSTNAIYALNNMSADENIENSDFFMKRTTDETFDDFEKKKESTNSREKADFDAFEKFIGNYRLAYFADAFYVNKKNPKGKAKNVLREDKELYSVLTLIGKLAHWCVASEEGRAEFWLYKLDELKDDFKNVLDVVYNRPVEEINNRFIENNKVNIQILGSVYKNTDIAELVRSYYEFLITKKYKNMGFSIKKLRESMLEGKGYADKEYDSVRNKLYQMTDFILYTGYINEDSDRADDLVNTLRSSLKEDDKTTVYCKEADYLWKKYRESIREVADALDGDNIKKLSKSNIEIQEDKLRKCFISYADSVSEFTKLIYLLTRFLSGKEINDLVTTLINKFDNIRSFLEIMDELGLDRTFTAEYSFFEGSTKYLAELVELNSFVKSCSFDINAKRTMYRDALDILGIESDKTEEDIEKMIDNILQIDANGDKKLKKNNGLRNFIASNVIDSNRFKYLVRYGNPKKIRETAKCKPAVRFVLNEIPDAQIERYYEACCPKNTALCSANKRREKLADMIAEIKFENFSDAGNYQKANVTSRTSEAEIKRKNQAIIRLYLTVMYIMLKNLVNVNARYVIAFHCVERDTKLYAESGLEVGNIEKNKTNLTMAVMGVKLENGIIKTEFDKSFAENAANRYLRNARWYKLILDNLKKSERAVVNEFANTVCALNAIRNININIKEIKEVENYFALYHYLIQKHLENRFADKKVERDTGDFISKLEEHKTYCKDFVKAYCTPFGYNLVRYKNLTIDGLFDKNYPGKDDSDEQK
# run_description: crRNA (strand 1, pre-loaded); Mg2+; 40 mM Tris-HCl pH 7.5, 150 mM NaCl, 6 mM MgCl2, 1 mM DTT, 0.1% Tween-20, 0.2 mg/ml BSA; 25 C; 10 min per concentration, then washed
# details: tags: His6-TwinStrep-SUMO cleaved; N-terminal SNAP kept (SNAP-Surface 488); label: 3' end held by stalled T7 RNA polymerase
State just the number; it will be interpreted in nM.

Example results:
binder	value_unit	Kd
target 1 insU 3' of 13,insU 3' of 13 (mixed) RNA 1: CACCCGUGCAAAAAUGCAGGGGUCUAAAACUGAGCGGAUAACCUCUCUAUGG RNA 2: GGGAAUGGAUCCACAUCUACGAAUUCGUACCAUAGAGAGUUGUUAUCCGCUCACCGAGAUCGGAAGAGCACACGU	nM	6.5
target 1 C2U,C7G (mixed) RNA 1: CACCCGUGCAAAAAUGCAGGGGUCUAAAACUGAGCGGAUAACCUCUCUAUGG RNA 2: GGGAAUGGAUCCACAUCUACGAAUUCGUACCAUAGAGAGGUUAUGCGCUUACCGAGAUCGGAAGAGCACACGU	nM	8.54
target 2 MT 5'PFS CUU 3'PFS CUA (mixed) RNA 1: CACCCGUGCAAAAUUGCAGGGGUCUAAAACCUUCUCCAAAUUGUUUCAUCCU RNA 2: GGGAAUGGAUCCACAUCUACGAAUUCCUUAGGAUGAAACAAUUUGGAGAAGCUAAGAUCGGAAGAGCACACGU	nM	10.8

Input: Report Kd, nothing else, for this binder: target 3 G4C,A12U (mixed) RNA 1: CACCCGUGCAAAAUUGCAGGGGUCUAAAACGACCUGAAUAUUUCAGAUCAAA RNA 2: GGGAAUGGAUCCACAUCUACGAAUUCGUUUUUGAUCUGAUAUAUUCACGUCUGCAGAUCGGAAGAGCACACGU
Output: 110

Input: Report Kd, nothing else, for this binder: target 1 MT 5'PFS UGC 3'PFS AUU (mixed) RNA 1: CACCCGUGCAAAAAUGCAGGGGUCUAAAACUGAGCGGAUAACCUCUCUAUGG RNA 2: GGGAAUGGAUCCACAUCUACGAAUUCUGCCCAUAGAGAGGUUAUCCGCUCAAUUAGAUCGGAAGAGCACACGU
Output: 18.6

Input: Report Kd, nothing else, for this binder: target 3 C1G,G4C (mixed) RNA 1: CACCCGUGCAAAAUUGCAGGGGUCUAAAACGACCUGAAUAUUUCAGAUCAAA RNA 2: GGGAAUGGAUCCACAUCUACGAAUUCGUUUUUGAUCUGAAAUAUUCACGUGUGCAGAUCGGAAGAGCACACGU
Output: 16.8

Input: Report Kd, nothing else, for this binder: target 2 MT 5'PFS CGG 3'PFS AUC (mixed) RNA 1: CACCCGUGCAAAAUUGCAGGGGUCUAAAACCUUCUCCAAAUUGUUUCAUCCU RNA 2: GGGAAUGGAUCCACAUCUACGAAUUCCGGAGGAUGAAACAAUUUGGAGAAGAUCAGAUCGGAAGAGCACACGU
Output: 6.8
